The origin of these recorded values is ChEMBL document CHEMBL1134958.

# Method: Ratio of inhibitory activities against human tryptase to that of human plasmin
Ratio values for the compounds below.
Outcome Measure: Ratio

compound=CC(C)C(OC(=O)N1CCN(C(=O)N2C(=O)[C@H](CCCN=C(N)N)[C@H]2C(=O)O)CC1)C(C)C meas_value=364
compound="N=C(N)N1CCCC(C[C@H]2C(=O)N(C(=O)N3CCN(C(=O)CCCCCc4ccccc4)CC3)[C@@H]2C(=O)O)C1 (stereo not given in full)" meas_value="> 16300"
compound="N=C(N)N1CCCC(C[C@H]2C(=O)N(C(=O)N3CCN(C(=O)OCCCOc4ccccc4)CC3)[C@@H]2C(=O)O)C1 (stereo not given in full)" meas_value="> 92500"
compound="N=C(N)N1CCCC(C[C@H]2C(=O)N(C(=O)N3CCN(C(=O)CCCCCC4CCCCC4)CC3)[C@@H]2C(=O)O)C1 (stereo not given in full)" meas_value=8420
compound=N=C(N)N1CCC[C@H](C[C@H]2C(=O)N(C(=O)N3CCN(C(=O)CCCCCc4ccccc4)CC3)[C@@H]2C(=O)O)C1 meas_value="> 12900"
compound="CN(CCCCc1ccccc1)C(=O)N1CCN(C(=O)N2C(=O)[C@H](CC3CCCN(C(=N)N)C3)[C@H]2C(=O)O)CC1 (stereo not given in full)" meas_value=3620
compound="N=C(N)N1CCCC(C[C@H]2C(=O)N(C(=O)N3CCN(C(=O)CCCCCc4ccccn4)CC3)[C@@H]2C(=O)O)C1 (stereo not given in full)" meas_value="> 7150"
compound=N=C(N)NCCC[C@H]1C(=O)N(C(=O)N2CCN(C(=O)CCCCCc3ccccc3)CC2)[C@@H]1C(=O)O meas_value="> 26"
compound="CC(C)C(OC(=O)N1CCN(C(=O)N2C(=O)[C@H](CC3CCCN(C(=N)N)C3)[C@H]2C(=O)O)CC1)C(C)C (stereo in doubt; form 2)" meas_value="> 465"
compound="N=C(N)N1CCCC(C[C@H]2C(=O)N(C(=O)N3CCN(C(=O)NCCCCc4ccccc4)CC3)[C@@H]2C(=O)O)C1 (stereo not given in full)" meas_value="> 16100"
compound=CC(C)(C)NC(=O)N1CCN(C(=O)N2C(=O)[C@H](CCCN=C(N)N)[C@H]2C(=O)O)CC1 meas_value=430
compound="CC(C)C(OC(=O)N1CCN(C(=O)N2C(=O)[C@H](CC3CCCN(C(=N)N)C3)[C@H]2C(=O)O)CC1)C(C)C (single isomer, unassigned)" meas_value="> 162"
compound=CC(C)C(OC(=O)N1CCN(C(=O)N2C(=O)[C@H](CC3CN(C(=N)N)C3)[C@H]2C(=O)O)CC1)C(C)C meas_value=394
compound=N=C(N)N1CCC[C@@H](C[C@H]2C(=O)N(C(=O)N3CCN(C(=O)CCCCCc4ccccc4)CC3)[C@@H]2C(=O)O)C1 meas_value="> 19400"
compound="CC(C)C(OC(=O)N1CCN(C(=O)N2C(=O)[C@H](CC3CCCN(C(=N)N)C3)[C@H]2C(=O)O)CC1)C(C)C (stereo in doubt; form 1)" meas_value="> 465"

---

half-life values for the molecules below.
# Method: Aqueous stability was evaluated as half life at 37 degree C at pH 9
# Assay type: physicochemical
# Test Parameters: aqueous solution
Outcome Measure: half-life (h)

molecule="CC(C)C(OC(=O)N1CCN(C(=O)N2C(=O)[C@H](CC3CCCN(C(=N)N)C3)[C@H]2C(=O)O)CC1)C(C)C (stereo in doubt; form 1)" value_units=h value_modifier=> meas_value=48
molecule=CC(C)C(OC(=O)N1CCN(C(=O)N2C(=O)[C@H](CCCN=C(N)N)[C@H]2C(=O)O)CC1)C(C)C value_units=h value_modifier== meas_value=7.3
molecule=CC(C)C(OC(=O)N1CCN(C(=O)N2C(=O)[C@H](CC3CN(C(=N)N)C3)[C@H]2C(=O)O)CC1)C(C)C value_units=h value_modifier== meas_value=14.4
molecule="N=C(N)N1CCCC(C[C@H]2C(=O)N(C(=O)N3CCN(C(=O)NCCCCc4ccccc4)CC3)[C@@H]2C(=O)O)C1 (stereo partly drawn)" value_units=h value_modifier== meas_value=12
molecule=N=C(N)N1CCC[C@H](C[C@H]2C(=O)N(C(=O)N3CCN(C(=O)CCCCCc4ccccc4)CC3)[C@@H]2C(=O)O)C1 value_units=h value_modifier=> meas_value=17.5
molecule="CN(CCCCc1ccccc1)C(=O)N1CCN(C(=O)N2C(=O)[C@H](CC3CCCN(C(=N)N)C3)[C@H]2C(=O)O)CC1 (stereo partly drawn)" value_units=h value_modifier== meas_value=23.9
molecule="N=C(N)N1CCCC(C[C@H]2C(=O)N(C(=O)N3CCN(C(=O)CCCCCc4ccccc4)CC3)[C@@H]2C(=O)O)C1 (stereo partly drawn)" value_units=h value_modifier=> meas_value=17.5
molecule=N=C(N)N1CCC[C@@H](C[C@H]2C(=O)N(C(=O)N3CCN(C(=O)CCCCCc4ccccc4)CC3)[C@@H]2C(=O)O)C1 value_units=h value_modifier=> meas_value=17.5

---

# Method: Ratio of inhibitory activities against human tryptase to that of human trypsin
Outcome Measure: Ratio

molecule="CC(C)C(OC(=O)N1CCN(C(=O)N2C(=O)[C@H](CC3CCCN(C(=N)N)C3)[C@H]2C(=O)O)CC1)C(C)C (single isomer, unassigned)" outcome_measure=Ratio meas_value="> 162"
molecule="N=C(N)N1CCCC(C[C@H]2C(=O)N(C(=O)N3CCN(C(=O)OCCCOc4ccccc4)CC3)[C@@H]2C(=O)O)C1 (some centres not stated)" outcome_measure=Ratio meas_value="> 1680"
molecule=N=C(N)N1CCC[C@H](C[C@H]2C(=O)N(C(=O)N3CCN(C(=O)CCCCCc4ccccc4)CC3)[C@@H]2C(=O)O)C1 outcome_measure=Ratio meas_value="> 3390"
molecule="N=C(N)N1CCCC(C[C@H]2C(=O)N(C(=O)N3CCN(C(=O)CCCCCc4ccccc4)CC3)[C@@H]2C(=O)O)C1 (some centres not stated)" outcome_measure=Ratio meas_value="> 1940"
molecule="N=C(N)N1CCCC(C[C@H]2C(=O)N(C(=O)N3CCN(C(=O)NCCCCc4ccccc4)CC3)[C@@H]2C(=O)O)C1 (some centres not stated)" outcome_measure=Ratio meas_value="> 1360"
molecule=N=C(N)N1CCC[C@@H](C[C@H]2C(=O)N(C(=O)N3CCN(C(=O)CCCCCc4ccccc4)CC3)[C@@H]2C(=O)O)C1 outcome_measure=Ratio meas_value="> 3280"
molecule=N=C(N)NCCC[C@H]1C(=O)N(C(=O)N2CCN(C(=O)CCCCCc3ccccc3)CC2)[C@@H]1C(=O)O outcome_measure=Ratio meas_value="> 8"
